ASSAY INFO: NCI Yeast Anticancer Drug Screen. Data for the rad50 strain (AID 155)
TEST PARAMETERS: S. cerevisiae rad50 strain growth inhibition; at 50.0 µM (retest, dose inferred, filed as 5.0)
Experimental: Growth inhibition of yeast strains with defined genetic alterations is measured as a screen for potential anti-cancer activity. Selected strains with alterations in DNA damage repair or cell cycle control were exposed to compounds and growth inhibition was measured relative to vehicle treated controls. The strain used in this assay is rad50
The panel holds about 79,000 compounds, 15% with a hit somewhere; the sample as a whole holds those more often. Activity calls are given as the source filed them. No stated cut-off is given here; in the data, active means growth inhibition above about 70%; inactive means the rest.
Labels: active, inactive

MOLECULE | CATEGORY LABEL
CC1CCC2(OC1)OC1CC3C4CC=C5CC(OC6OC(CO)C(OC7OC(C)C(OC8OC(C)C(O)C(O)C8O)C(O)C7O)C(O)C6OC6OC(C)C(O)C(O)C6O)CCC5(C)C4CCC3(C)C1C2C (stereo not drawn) | active
O=C1CN2C(Cl)(Cl)C2(c2ccccc2)c2cc(Cl)ccc2N1CC1CC1 (stereo not drawn) | active
COc1c(NC(=O)CC(C)=O)[c]([Hg][O]C(C)=O)c(OC)c(Cl)[c]1[Hg][O]C(C)=O | active
Cc1cc[n+](C2=C(Nc3ccc(Cl)cc3Cl)C(=O)c3ccccc3C2=O)cc1 | active
O=C(N/N=C/c1cc(Cl)cc(Cl)c1[O-])c1ccccc1O.O=C(N/N=C/c1cc(Cl)cc(Cl)c1[O-])c1ccccc1O.[Zn+2] | inactive
COc1cc(OC)c(OC)cc1/C=C/[N+](=O)[O-] | inactive
COc1ccc(C2N(Cc3ccc(N(CCCl)CCCl)cc3C)CCCN2Cc2ccc(N(CCCl)CCCl)cc2C)cc1 | active
c1cc2c(cc1NC1=NCCO1)CCCC2 | inactive

Cited source: PubChem BioAssay (NCI)
